MEASUREMENT_NOTES: Intrinsic clearance in rat hepatocytes at 0.3 uM incubated for 90 mins by LC/MS/MS analysis
Format: ADME, cell-based, Hepatocyte
ASSAY_CONDITIONS: read-out: CLH
OUTCOME_MEASURE: CLint scaled at 0.3 µM (mL/min/kg)
Please state the figure in mL/min/kg; there is no need to write the unit.

Query CLint scaled at 0.3 µM for `Cc1c(Nc2ncc3ccc(N4C(=O)OC[C@@H]4C)cc3n2)cnn1C1CCOCC1`
17

###

Below: a set of entries, each annotated with reported fIC50.
Test system: Leucine-rich repeat serine/threonine-protein kinase 2 (Homo sapiens), Q5S007 [G2019S]
Sequence (Q5S007 whole entry G2019S): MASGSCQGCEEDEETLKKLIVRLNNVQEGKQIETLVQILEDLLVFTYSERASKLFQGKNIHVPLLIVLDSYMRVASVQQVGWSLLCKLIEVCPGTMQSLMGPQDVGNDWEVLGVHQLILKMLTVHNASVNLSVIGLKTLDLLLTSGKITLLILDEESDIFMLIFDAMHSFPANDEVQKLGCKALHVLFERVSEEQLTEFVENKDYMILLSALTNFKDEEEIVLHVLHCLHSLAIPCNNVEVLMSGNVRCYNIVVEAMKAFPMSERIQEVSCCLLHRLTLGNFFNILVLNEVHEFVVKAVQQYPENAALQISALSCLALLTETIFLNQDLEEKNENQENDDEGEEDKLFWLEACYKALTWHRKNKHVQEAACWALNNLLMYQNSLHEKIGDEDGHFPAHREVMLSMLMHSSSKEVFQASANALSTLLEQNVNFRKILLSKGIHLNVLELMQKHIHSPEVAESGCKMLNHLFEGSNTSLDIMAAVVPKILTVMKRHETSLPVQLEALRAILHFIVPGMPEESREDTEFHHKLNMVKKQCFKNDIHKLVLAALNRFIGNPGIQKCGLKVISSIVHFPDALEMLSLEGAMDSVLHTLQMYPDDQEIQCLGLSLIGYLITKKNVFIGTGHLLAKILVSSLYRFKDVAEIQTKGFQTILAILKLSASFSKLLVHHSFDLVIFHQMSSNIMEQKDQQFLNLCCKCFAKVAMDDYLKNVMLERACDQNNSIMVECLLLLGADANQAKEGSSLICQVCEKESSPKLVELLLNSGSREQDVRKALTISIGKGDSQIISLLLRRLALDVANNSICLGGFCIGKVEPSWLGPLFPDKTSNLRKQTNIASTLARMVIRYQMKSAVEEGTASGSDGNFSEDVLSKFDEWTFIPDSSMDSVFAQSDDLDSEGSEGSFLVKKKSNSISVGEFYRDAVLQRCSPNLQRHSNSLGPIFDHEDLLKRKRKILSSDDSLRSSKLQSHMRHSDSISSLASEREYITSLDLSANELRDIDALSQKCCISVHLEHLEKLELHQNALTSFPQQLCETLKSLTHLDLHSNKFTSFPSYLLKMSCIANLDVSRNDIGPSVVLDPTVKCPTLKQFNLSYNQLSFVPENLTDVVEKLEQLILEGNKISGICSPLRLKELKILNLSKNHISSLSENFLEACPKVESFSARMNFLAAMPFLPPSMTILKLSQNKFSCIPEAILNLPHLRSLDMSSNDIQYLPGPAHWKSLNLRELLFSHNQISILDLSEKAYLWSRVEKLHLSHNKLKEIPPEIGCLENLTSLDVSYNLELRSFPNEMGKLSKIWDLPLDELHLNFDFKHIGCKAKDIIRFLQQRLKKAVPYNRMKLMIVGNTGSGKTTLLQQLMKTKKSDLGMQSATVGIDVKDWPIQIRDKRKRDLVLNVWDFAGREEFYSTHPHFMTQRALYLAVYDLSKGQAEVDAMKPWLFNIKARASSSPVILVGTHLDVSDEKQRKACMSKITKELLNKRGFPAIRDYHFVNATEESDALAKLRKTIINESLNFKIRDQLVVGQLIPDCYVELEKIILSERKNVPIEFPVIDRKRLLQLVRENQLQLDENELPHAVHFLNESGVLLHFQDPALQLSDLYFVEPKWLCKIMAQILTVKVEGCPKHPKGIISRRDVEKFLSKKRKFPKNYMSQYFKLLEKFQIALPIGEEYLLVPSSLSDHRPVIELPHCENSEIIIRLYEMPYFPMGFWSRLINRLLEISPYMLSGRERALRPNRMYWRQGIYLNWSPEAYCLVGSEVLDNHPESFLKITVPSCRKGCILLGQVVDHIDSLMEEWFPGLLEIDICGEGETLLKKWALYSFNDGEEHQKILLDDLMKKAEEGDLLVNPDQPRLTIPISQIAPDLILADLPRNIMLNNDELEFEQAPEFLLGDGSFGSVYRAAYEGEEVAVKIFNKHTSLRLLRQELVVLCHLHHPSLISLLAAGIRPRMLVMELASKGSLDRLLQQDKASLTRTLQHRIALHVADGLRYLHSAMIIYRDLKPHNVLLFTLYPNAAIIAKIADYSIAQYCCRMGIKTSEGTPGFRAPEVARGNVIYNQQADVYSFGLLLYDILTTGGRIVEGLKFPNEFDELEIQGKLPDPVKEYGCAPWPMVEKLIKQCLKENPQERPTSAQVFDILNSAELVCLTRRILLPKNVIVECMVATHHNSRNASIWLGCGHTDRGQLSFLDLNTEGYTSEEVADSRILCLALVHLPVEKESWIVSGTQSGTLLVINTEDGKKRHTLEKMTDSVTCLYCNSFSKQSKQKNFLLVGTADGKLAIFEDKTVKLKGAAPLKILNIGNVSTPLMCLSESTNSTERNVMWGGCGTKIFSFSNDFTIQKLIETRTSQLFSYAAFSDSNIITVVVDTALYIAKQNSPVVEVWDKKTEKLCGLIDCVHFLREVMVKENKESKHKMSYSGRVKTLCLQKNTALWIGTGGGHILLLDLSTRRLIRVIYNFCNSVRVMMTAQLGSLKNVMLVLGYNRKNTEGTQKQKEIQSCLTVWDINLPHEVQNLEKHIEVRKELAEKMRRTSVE
MEASUREMENT_NOTES: Inhibition of LRRK2 […] mutant expressed in human SH-SY5Y cells assessed as unbound concentration required for inhibition of phosphorylation of LRRK2 at Ser935 residue incubated for 90 mins by MSD assay
Format: cell-based
Please state the figure in nM; there is no need to write the unit.

# annotated cases, reported fIC50 shown
MOLECULE	VALUE_OBSERVED
FC1CN(C2COCC2F)CCC1c1cc2nc(Nc3cnn(C4CC4(F)F)c3Cl)ncc2cc1Cl (configuration not stated)	1.9
FC1CN(C2CCOC2)CCC1c1cc2nc(Nc3cnn(C4CC4(F)F)c3Cl)ncc2cc1Cl (configuration not stated)	2.5
Cc1c(Nc2ncc3ccc(N4C(=O)OC[C@@H]4C)cc3n2)cnn1C1CCOCC1	3.2
Clc1cc2cnc(Nc3cnn(C4CC4)c3Cl)nc2cc1N1CCN(C2COC2)CC1	71
FC1CN(C2COC2)CCC1c1cc2nc(Nc3cnn(C4CC4(F)F)c3Cl)ncc2cc1Cl (configuration not stated)	6.1

Query fIC50 for `c1cc(C2CC2)c2nc(Nc3cnn(C4CCOCC4)c3)ncc2c1`
90

Query fIC50 for Cc1c(Nc2ncc3ccc(C4(C#N)CC45CC5)cc3n2)cnn1C1CCOCC1 (configuration not stated)
6.9

###

TESTED_TARGET: Leucine-rich repeat serine/threonine-protein kinase 2 (Homo sapiens, UniProt Q5S007, G2019S)
Sequence (Q5S007 whole entry G2019S, the tested form may be a part): as the sequence (Q5S007 whole entry G2019S) above
MEASUREMENT_NOTES: Inhibition of recombinant N-terminal GST-fused LRRK2 […] mutant (970 to 2527 residues) (unknown origin) preincubated with enzyme for 15 mins followed by fluorescein-labeled LRRKtide peptide substrate and ATP addition for 90 mins by TR-FRET assay
Below: a set of entries, each annotated with reported IC50.

Query IC50 for `Cc1c(Nc2ncc3ccc(C4(C#N)CC4)cc3n2)cnn1C1CCOCC1`
0.7 nM

Query IC50 for `Clc1cc2cnc(Nc3cnn(C4CC4)c3Cl)nc2cc1C1CCN(C2COC2)CC1`
< 0.6 nM

Query IC50 for FC1CN(C2CCOC2)CCC1c1cc2nc(Nc3cnn(C4CC4(F)F)c3Cl)ncc2cc1Cl (stereo not drawn)
< 0.6 nM

Query IC50 for FC1CN(C2COCC2F)CCC1c1cc2nc(Nc3cnn(C4CC4(F)F)c3Cl)ncc2cc1Cl (stereo not drawn)
< 0.6 nM

Query IC50 for FC1CN(C2COC2)CCC1c1cc2nc(Nc3cnn(C4CC4)c3Cl)ncc2cc1Cl (stereo not drawn)
< 0.6 nM

Query IC50 for FC1CN(C2COC2)CCC1c1cc2nc(Nc3cnn(C4CC4(F)F)c3Cl)ncc2cc1Cl (stereo not drawn)
< 0.6 nM

Query IC50 for Cc1c(Nc2ncc3ccc(C4(C#N)CC45CC5)cc3n2)cnn1C1CCOCC1 (stereo not drawn)
< 0.6 nM

Query IC50 for N#CC1(c2ccc3cnc(Nc4cnn(C5CCOCC5)c4Cl)nc3c2)CC12CC2 (stereo not drawn)
< 0.08 nM
